measuredTarget: Drosophila melanogaster dNK (Drosophila melanogaster, UniProt Q9XZT6)
Sequence (Q9XZT6 whole entry): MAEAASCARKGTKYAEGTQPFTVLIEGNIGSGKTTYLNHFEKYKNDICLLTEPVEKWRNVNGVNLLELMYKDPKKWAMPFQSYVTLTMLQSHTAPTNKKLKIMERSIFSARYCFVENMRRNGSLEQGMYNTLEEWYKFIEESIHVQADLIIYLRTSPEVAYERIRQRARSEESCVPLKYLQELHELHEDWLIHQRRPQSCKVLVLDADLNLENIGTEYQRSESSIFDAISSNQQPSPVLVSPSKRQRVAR
procedureText: Phosphorylation assay (spectrophotometric coupled-enzyme), D. melanogaster dNK
Type: biochemical
appliedConditions: substrate at 100 μM; 37° C.; 1 mM ATP; triplicate
Kindly supply the reported D. melanogaster dNK substrate phosphorylation values for the records listed here.

For orientation, consider the following solved cases.
compound="CC1(CO)C[C@@H](n2ccc(=O)[nH]c2=O)O[C@@H]1CO (mixture of isomers)" valuereported="0.36 10^6 μmol/min mg"
compound="COC(=O)C1(C)C[C@H](n2cc(C)c(=O)[nH]c2=O)O[C@@H]1CO (mixture of isomers)" valuereported="3.44 10^6 μmol/min mg"
compound="Cc1cn([C@H]2CC(C)(CO)[C@@H](CO)O2)c(=O)[nH]c1=O (mixture of isomers)" valuereported="0.74 10^6 μmol/min mg"

Continue with the next compound.
Q: Write down the reported D. melanogaster dNK substrate phosphorylation (system: Drosophila melanogaster dNK (Drosophila melanogaster, UniProt Q9XZT6)) of COC(=O)C1(C)C[C@@H](n2ccc(=O)[nH]c2=O)O[C@@H]1CO (mixture of isomers)
Ans: <0.1 10^6 μmol/min mg

---

measuredTarget: Thermotoga maritima thymidine kinase (Thermotoga maritima, UniProt Q9WYN2)
Sequence (Q9WYN2 whole entry): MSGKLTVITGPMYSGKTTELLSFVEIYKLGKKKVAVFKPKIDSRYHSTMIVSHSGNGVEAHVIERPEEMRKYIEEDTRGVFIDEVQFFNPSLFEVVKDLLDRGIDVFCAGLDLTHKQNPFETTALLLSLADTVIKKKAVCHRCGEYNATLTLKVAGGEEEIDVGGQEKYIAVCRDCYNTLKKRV
procedureText: Phosphorylation assay (spectrophotometric coupled-enzyme), T. maritima TK
Format: biochemical
appliedConditions: substrate at 100 μM; 37° C.; 1 mM ATP; triplicate
propertyMeasured: T. maritima TK substrate phosphorylation

See these solved cases before continuing.
compound="CCOC(=O)[C@@H]1O[C@H](n2cc(C)c(=O)[nH]c2=O)CC1(C)C(=O)OCC (stereo partly drawn)" measuredtarget="Thermotoga maritima thymidine kinase (Thermotoga maritima, UniProt Q9WYN2)" valuereported="6.1 10^−3 μmol/min mg"
compound="Cc1cn([C@@H]2CC(C)(CO)[C@@H](CO)O2)c(=O)[nH]c1=O (mixture of isomers)" measuredtarget="Thermotoga maritima thymidine kinase (Thermotoga maritima, UniProt Q9WYN2)" valuereported="<1 10^−3 μmol/min mg"

Next up:
Q: Respond only with T. maritima TK substrate phosphorylation recorded for COC(=O)C1(C)C[C@H](n2ccc(=O)[nH]c2=O)O[C@@H]1CO (mixture of isomers)
Ans: <1 10^−3 μmol/min mg
